Reference source for all entries: patent US10669272B2

Target: human DGKα (Homo sapiens)
Construct: TVMV protease cleavage site (C); Hexa-His (C); made in house; host or cells: Sf9 insect cells (baculovirus, Bac-to-Bac)
Sequence (P23743 with tags, fused parts or gaps): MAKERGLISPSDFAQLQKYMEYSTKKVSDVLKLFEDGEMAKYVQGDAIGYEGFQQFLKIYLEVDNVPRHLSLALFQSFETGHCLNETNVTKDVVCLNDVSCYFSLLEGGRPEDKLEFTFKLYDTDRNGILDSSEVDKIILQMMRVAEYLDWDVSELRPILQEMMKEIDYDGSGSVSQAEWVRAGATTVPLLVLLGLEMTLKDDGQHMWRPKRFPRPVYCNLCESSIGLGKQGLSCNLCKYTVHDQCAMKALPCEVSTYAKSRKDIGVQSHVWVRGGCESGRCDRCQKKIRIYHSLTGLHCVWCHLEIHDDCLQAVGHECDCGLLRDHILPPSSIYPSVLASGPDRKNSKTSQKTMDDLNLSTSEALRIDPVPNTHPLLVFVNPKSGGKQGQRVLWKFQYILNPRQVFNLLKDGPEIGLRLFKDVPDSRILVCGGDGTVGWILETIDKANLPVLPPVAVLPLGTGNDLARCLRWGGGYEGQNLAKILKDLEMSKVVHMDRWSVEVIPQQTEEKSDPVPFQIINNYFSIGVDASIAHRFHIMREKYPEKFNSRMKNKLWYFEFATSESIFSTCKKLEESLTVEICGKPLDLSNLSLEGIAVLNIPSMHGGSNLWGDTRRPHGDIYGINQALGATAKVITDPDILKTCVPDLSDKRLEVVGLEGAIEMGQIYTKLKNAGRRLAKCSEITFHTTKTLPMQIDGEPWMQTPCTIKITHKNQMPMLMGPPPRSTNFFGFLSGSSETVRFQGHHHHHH
Test: DGKα LIPGLO assay (extruded liposome substrate), in vitro DGK inhibition
Type: biochemical
Settings: liposome (LIPGLO) assay; read-out: DGKa LIPGLO IC50
pIC50: −log10 of the molar value. Where a name gives a salt, the structure may show the parent alone.
// Not fulfilled strictly below 5 in pIC50; Fulfilled otherwise

{"molecule": "COC[C@H]1CN(C(c2ccc(F)cc2)c2ccc(F)cc2)[C@H](C)CN1c1cc(=O)n(C)c2ccc(C#N)nc12", "group": "Fulfilled"}
{"molecule": "COC(=O)C1CN(c2cc(=O)n(C)c3ccc(C#N)nc23)CCN1C(c1ccc(Cl)cc1)c1ccc(Cl)cc1 (single isomer, unassigned) [Example 96]", "group": "Not fulfilled"}
{"molecule": "CC[C@@H]1CN(c2cc(=O)n(C)c3ccc(C#N)nc23)[C@@H](C)CN1C(C)c1ccc(F)cc1F (single isomer, unassigned) [Example 1088]", "group": "Fulfilled"}
{"molecule": "CC[C@H]1CN(C(c2ccc(F)cc2)c2ccc(C#N)cc2)[C@H](CC)CN1c1cc(=O)n(C)c2ccc(C#N)nc12 (stereo partly drawn) [Example 1036]", "group": "Fulfilled"}
{"molecule": "C[C@@H]1CN(c2cc(=O)n(C)c3ccc(C#N)nc23)[C@@H](C)CN1C(c1ccccc1)c1c(F)cccc1F (single isomer, unassigned) [Example 273, TFA]", "group": "Fulfilled"}
